Tested on: 485176-168-R4-J1-PDC complex spheroid growth
assayComment: Anticancer human tumor 485176-168-R4-J1-PDC patient-derived pancreatic adenocarcinoma cell line growth inhibition [RAS]
assayConditions: second compound 0.01 µM; first compound 0.1 µM; stronger effect = lower value
Catalogue of viability, T/C values
Record the value in %, omitting the unit from your answer.

Some solved entries appear below for comparison.
{"columns": ["compound", "experimentalTarget", "viability, T/C, %"],
 "data": [
  ["CCC(CC)c1cc(NC2CCC(N)C2)n2nccc2n1 (stereo not drawn) + C=CC(=O)N1CCN(c2nc(OCC3CCCN3C)nc3c(F)c(-c4nc(N)cc(C)c4C(F)(F)F)c(Cl)cc23)C(C)C1", "485176-168-R4-J1-PDC complex spheroid growth", 98.3],
  ["O=C(c1ccc(F)c(F)c1Nc1ccc(I)cc1F)N1CC(O)([C@@H]2CCCCN2)C1 + C=CC(=O)N1CCN(c2nc(OCC3CCCN3C)nc3c(F)c(-c4nc(N)cc(C)c4C(F)(F)F)c(Cl)cc23)C(C)C1", "485176-168-R4-J1-PDC complex spheroid growth", 61.9]
]}

Below: the item to evaluate.
// field: viability, T/C; key: CC1(O)CCCC1n1c(=O)c(C(F)F)cc2cnc(NC3CCN(S(C)(=O)=O)CC3)nc21 (stereo not drawn) + C=CC(=O)N1CCN(c2nc(OCC3CCCN3C)nc3c(F)c(-c4nc(N)cc(C)c4C(F)(F)F)c(Cl)cc23)C(C)C1 ; value = 61.8

====

System: 485176-168-R4-J1-PDC complex spheroid growth
assayComment: Anticancer human tumor 485176-168-R4-J1-PDC cell line growth inhibition [RAS];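 note: spheroids exposed to compounds for seven days before readout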
assayConditions: curve of first compound; second compound 0.000949 µM
measureName: IC50

{"columns": ["compound", "measuredResult"],
 "data": [
  ["CC1(C)CCC(Nc2ncc(C(F)(F)F)c(-c3c[nH]c4c(P(C)(C)=O)c(C#N)ccc34)n2)CN1 (stereo not drawn) + CCn1c(-c2cc(N3CCN(C)CC3)cnc2C(C)OC)c2c3cc(ccc31)-c1csc(n1)CC(NC(=O)C1CC1C)C(=O)N1CCCC(N1)C(=O)OCC(C)(C)C2", "> 0.3 µM"],
  ["CCC(CC)c1cc(NC2CCC(N)C2)n2nccc2n1 (stereo not drawn) + CCn1c(-c2cc(N3CCN(C)CC3)cnc2C(C)OC)c2c3cc(ccc31)-c1csc(n1)CC(NC(=O)C1CC1C)C(=O)N1CCCC(N1)C(=O)OCC(C)(C)C2", "1.13 µM"]
]}

Below: the item to evaluate.
// field: IC50; key: NC1c2ccccc2OC12CCN(c1cnc3c(N4CCCc5ncccc54)n[nH]c3n1)CC2 (stereo not drawn) + CCn1c(-c2cccnc2C(C)OC)c2c3cc(ccc31)N1CCOC(CC(NC(=O)C(C(C)C)N(C)C(=O)C3(F)CCN(C(=O)C#CC(C)(C)N(C)C)CC3)C(=O)N3CCCC(N3)C(=O)OCC(C)(C)C2)C1 ; value = > 10 µM

====

Catalogue of pIC50 values
Test system: 485176-168-R4-J1-PDC complex spheroid growth
assayComment: Anticancer human tumor 485176-168-R4-J1-PDC cell line growth inhibition [RAS];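 note: spheroids exposed to compounds for seven days before readout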
assayConditions: curve of first compound; second compound 0.03 µM
# reply with the number alone; pIC50 is -log10 of concentration in mol/L

Some solved entries appear below for comparison.
{"columns": ["compound", "pIC50"],
 "data": [
  ["CCN1CCN(Cc2ccc(Nc3ncc(F)c(-c4cc(F)c5nc(C)n(C(C)C)c5c4)n3)nc2)CC1 + CCn1c(-c2cc(N3CCN(C)CC3)cnc2C(C)OC)c2c3cc(ccc31)-c1csc(n1)CC(NC(=O)C1CC1C)C(=O)N1CCCC(N1)C(=O)OCC(C)(C)C2", 6.03],
  ["O=C(c1ccc(F)c(F)c1Nc1ccc(I)cc1F)N1CC(O)([C@@H]2CCCCN2)C1 + CCn1c(-c2cc(N3CCN(C)CC3)cnc2C(C)OC)c2c3cc(ccc31)-c1csc(n1)CC(NC(=O)C1CC1C)C(=O)N1CCCC(N1)C(=O)OCC(C)(C)C2", 7.64],
  ["Nc1ccn(C2OC(CO)C(O)C2(F)F)c(=O)n1 (centres undefined) + CCn1c(-c2cc(N3CCN(C)CC3)cnc2C(C)OC)c2c3cc(ccc31)-c1csc(n1)CC(NC(=O)C1CC1C)C(=O)N1CCCC(N1)C(=O)OCC(C)(C)C2", 7.90]
]}

Below: the item to evaluate.
// field: pIC50; key: CCc1c2c(nc3ccc(O)cc13)-c1cc3c(c(=O)n1C2)COC(=O)[C@]3(O)CC + CCn1c(-c2cccnc2C(C)OC)c2c3cc(ccc31)N1CCOC(CC(NC(=O)C(C(C)C)N(C)C(=O)C3(F)CCN(C(=O)C#CC(C)(C)N(C)C)CC3)C(=O)N3CCCC(N3)C(=O)OCC(C)(C)C2)C1 ; value = 7.90

====

Test system: 485176-168-R4-J1-PDC complex spheroid growth
assayComment: Anticancer human tumor 485176-168-R4-J1-PDC cell line growth inhibition [RAS];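 note: spheroids exposed to compounds for seven days before readout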
assayConditions: curve of first compound; second compound 0.0949 µM
Excerpt: RAS pathway inhibitors in Combinations in Complex Spheroids A high-throughput screen of multi-cell type tumor spheroids was designed to identify active combinations of RAS pathway inhibitors and targeted small molecules. Complex spheroids include a stromal component modeled by human endothelial cells (HUVEC) and fibroblasts modeled by human mesenchymal stem cells (MSCs). […] Compounds. […] If the clinical Cmax for an agent had not been determined, the highest concentration tested was 10 microM. […]
Catalogue of IC50 values
Record the value in nM, omitting the unit from your answer.

Some solved entries appear below for comparison.
{"columns": ["compound", "measureName", "measuredResult"],
 "data": [
  ["Nc1ccn(C2OC(CO)C(O)C2(F)F)c(=O)n1 (stereo not given) + CCn1c(-c2cccnc2C(C)OC)c2c3cc(ccc31)N1CCOC(CC(NC(=O)C(C(C)C)N(C)C(=O)C3(F)CCN(C(=O)C#CC(C)(C)N(C)C)CC3)C(=O)N3CCCC(N3)C(=O)OCC(C)(C)C2)C1", "IC50", 14.1],
  ["O=C(c1ccc(F)c(F)c1Nc1ccc(I)cc1F)N1CC(O)([C@@H]2CCCCN2)C1 + CCn1c(-c2cccnc2C(C)OC)c2c3cc(ccc31)N1CCOC(CC(NC(=O)C(C(C)C)N(C)C(=O)C3(F)CCN(C(=O)C#CC(C)(C)N(C)C)CC3)C(=O)N3CCCC(N3)C(=O)OCC(C)(C)C2)C1", "IC50", 142],
  ["CC1(O)CCCC1n1c(=O)c(C(F)F)cc2cnc(NC3CCN(S(C)(=O)=O)CC3)nc21 (stereo not given) + CCn1c(-c2cc(N3CCN(C)CC3)cnc2C(C)OC)c2c3cc(ccc31)-c1csc(n1)CC(NC(=O)C1CC1C)C(=O)N1CCCC(N1)C(=O)OCC(C)(C)C2", "IC50", 1390],
  ["Nc1ccn(C2OC(CO)C(O)C2(F)F)c(=O)n1 (stereo not given) + CCn1c(-c2cc(N3CCN(C)CC3)cnc2C(C)OC)c2c3cc(ccc31)-c1csc(n1)CC(NC(=O)C1CC1C)C(=O)N1CCCC(N1)C(=O)OCC(C)(C)C2", "IC50", 14.4],
  ["CCN1CCN(Cc2ccc(Nc3ncc(F)c(-c4cc(F)c5nc(C)n(C(C)C)c5c4)n3)nc2)CC1 + CCn1c(-c2cc(N3CCN(C)CC3)cnc2C(C)OC)c2c3cc(ccc31)-c1csc(n1)CC(NC(=O)C1CC1C)C(=O)N1CCCC(N1)C(=O)OCC(C)(C)C2", "IC50", 929],
  ["CCC(CC)c1cc(NC2CCC(N)C2)n2nccc2n1 (stereo not given) + CCn1c(-c2cc(N3CCN(C)CC3)cnc2C(C)OC)c2c3cc(ccc31)-c1csc(n1)CC(NC(=O)C1CC1C)C(=O)N1CCCC(N1)C(=O)OCC(C)(C)C2", "IC50", 1040],
  ["CCc1c2c(nc3ccc(O)cc13)-c1cc3c(c(=O)n1C2)COC(=O)[C@]3(O)CC + CCn1c(-c2cc(N3CCN(C)CC3)cnc2C(C)OC)c2c3cc(ccc31)-c1csc(n1)CC(NC(=O)C1CC1C)C(=O)N1CCCC(N1)C(=O)OCC(C)(C)C2", "IC50", 10.3]
]}

Below: the item to evaluate.
// field: IC50; key: CCC(CC)c1cc(NC2CCC(N)C2)n2nccc2n1 (stereo not given) + CCn1c(-c2cccnc2C(C)OC)c2c3cc(ccc31)N1CCOC(CC(NC(=O)C(C(C)C)N(C)C(=O)C3(F)CCN(C(=O)C#CC(C)(C)N(C)C)CC3)C(=O)N3CCCC(N3)C(=O)OCC(C)(C)C2)C1 ; value = 1010

====

Tested on: 485176-168-R4-J1-PDC complex spheroid growth
assayComment: Anticancer human tumor 485176-168-R4-J1-PDC cell line growth inhibition [RAS];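 note: spheroids exposed to compounds for seven days before readout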;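 for viability, T/C: luminescence viability expressed relative to DMSO vehicle wells set as 100%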
assayConditions: second compound 0.0316 µM; first compound 0.1 µM; stronger effect = lower value
# y = viability, T/C below 80% (exclusive); n = viability, T/C at/above 80%

Example results:
{"columns": ["compound", "className"],
 "data": [
  ["CC(C)NCC(C(=O)N1CCN(c2ncnc3c2C(C)CC3O)CC1)c1ccc(Cl)cc1 (stereo not given) + C#Cc1c(F)ccc2cc(O)cc(-c3ncc4c(N5CC6CCC(C5)N6)nc(OCC56CCCN5CC(F)C6)nc4c3F)c12", "n"],
  ["CC(C)NCC(C(=O)N1CCN(c2ncnc3c2C(C)CC3O)CC1)c1ccc(Cl)cc1 (stereo not given) + C=CC(=O)N1CCN(c2nc(OCC3CCCN3C)nc3c(F)c(-c4nc(N)cc(C)c4C(F)(F)F)c(Cl)cc23)C(C)C1", "n"],
  ["CC(=O)OC12COC1CC(O)C1(C)C(=O)C(O)C3=C(C)C(OC(=O)C(O)C(NC(=O)OC(C)(C)C)c4ccccc4)CC(O)(C(OC(=O)c4ccccc4)C21)C3(C)C (stereo not given) + C#Cc1c(F)ccc2cc(O)cc(-c3ncc4c(N5CC6CCC(C5)N6)nc(OCC56CCCN5CC(F)C6)nc4c3F)c12", "y"],
  ["Cc1nc(N2CCC3(CC2)COC(C)C3N)c(CO)nc1Sc1ccnc(N)c1Cl (stereo not given) + C#Cc1c(F)ccc2cc(O)cc(-c3ncc4c(N5CC6CCC(C5)N6)nc(OCC56CCCN5CC(F)C6)nc4c3F)c12", "n"]
]}

[Q] For this compound, is viability, T/C lower than 80%? CC(Nc1ccc2c(c1)OCCn1cc(N3C(=O)OCC3C(F)F)nc1-2)C(N)=O (stereo not given) + C#Cc1c(F)ccc2cc(O)cc(-c3ncc4c(N5CC6CCC(C5)N6)nc(OCC56CCCN5CC(F)C6)nc4c3F)c12
[A] n
